Format: in vivo, Balb/c nude mice harboring LoVo xenografts
measurement-parameters: 8-day vs single SMI 10 mL/kg/day i.p.
measured-quantity: AUC0–∞ ratio Multiple/Single in tumors
Format: numeric value only, no unit, no commentary.

Q: What measured AUC0–∞ ratio Multiple/Single in tumors goes with CC(C)=CCC[C@](C)(O[C@@H]1O[C@H](CO)[C@@H](O)[C@H](O)[C@H]1O)[C@H]1CC[C@]2(C)[C@@H]1[C@H](O)C[C@@H]1[C@@]3(C)CC[C@H](O[C@@H]4O[C@H](CO)[C@@H](O)[C@H](O)[C@H]4O[C@@H]4O[C@H](CO)[C@@H](O)[C@H](O)[C@H]4O)C(C)(C)[C@@H]3CC[C@]12C [Rd, ginsenoside Rd] ?
Ans: 10.53
